B1: Hairpin Ribozyme (parent)
chain: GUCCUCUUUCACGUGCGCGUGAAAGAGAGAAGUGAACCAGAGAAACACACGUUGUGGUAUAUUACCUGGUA

variants of: B1; assay: self-cleavage, relative activity (ratio to wild type); higher = more cleavage; co-transcriptional
REPORTED_ENDPOINT: self-cleavage
# print the numeric value only

Q: Report self-cleavage, nothing else, for this variant: "GUCCUCUUUCACGUGCGCGUGAUAGAGAGAAGUGAACCGGAGAAACACACGUUGUGGUAUAUUACCUGGUA"
Result: 0.298

Q: For "GUCCUCUUUCACGUGCGCGUGAAAGAGAGAAGUGAACCAGAGAAACACACCUUGUGGUAUAUUACCUGGUU" , write its self-cleavage.
Result: 0.722

Q: Read the entry "GUCCUCUUUCACGUGCGCGUGAAAGAGAGACGUGAACCAGAGAAACACACAUUGUGGUAUAUUACCUGGUA" and write its reported self-cleavage.
Result: 0.179

Q: Output self-cleavage of "GUCCUCUUUCACGUGCGCGUGAAAGAGAGACCUGAACCAGAGAAACACACGUUGUGGUAUAUUACCUGGUA"
Result: 0.228

Q: Dear colleague, please send me the reported self-cleavage for "GUCCUCUUUCACGUGCGGGUGAAAGAGAGAAGUGAACCAGAGAAACACACGUUGUGGUAUAUUAGCUGGUA" when you can.
Result: 0.212

Q: # return recorded self-cleavage for input "GUCGUCUUUCACGUGCGCGUGAAAGAGAGAAGUGAACCAGAGAAUCACACGUUGUGGUAUAUUACCUGGUA"
Result: 0.112

Q: Input "GUCCUCUUUCACGUGCGCUUGAAAGAGAGAAGGGAACCAGAGAAACACACGUUGUGGUAUAUUACCUGGUA" , output reported self-cleavage.
Result: 0.117

Q: # return recorded self-cleavage for entry "GUCCUCUUUCACGUGCGCGUCAAAGAGAGAAGUGAACCAGAGAAACACACGUUGUGGUAUAUCACCUGGUA"
Result: 0.196

Q: Supply recorded self-cleavage for "GUCCUCUUUCACGUGCGCGUGAAAGACAGAAGUGAACCAGAGAAACACACGUUGUGGUAUCUUACCUGGUA" here.
Result: 0.0843

Q: Output measured self-cleavage for this item: "GUCCUCUUUCACGUGCGCGUGAACGAGAGAAGUGAACCAGAGAAACACACGUUGUGGUCUAUUACCUGGUA"
Result: 0.209

Q: Supply measured self-cleavage of "GUCCUCUUUAACGUACGCGUGAAAGAGAGAAGUGAACCAGAGAAACACACGUUGUGGUAUAUUACCUGGUA" in your reply.
Result: 0.773

Q: Quickly give me recorded self-cleavage for "GUCCUGUUUCACGUGCGCGUGAAAGAGAGAAGUGAACCAGAGAAGCACACGUUGUGGUAUAUUACCUGGUA"
Result: 0.0674

Q: Report self-cleavage for "GUCCUCUUUCACGUGCGCGUGAAAGAGAGAAGUGAACCAGAGAAACACAGGUUGUGGUAUAAUACCUGGUA"
Result: 0.213

Q: Give a short answer stating reported self-cleavage for "GUCCUCUUUAACGUGCGCGUGAAAGAGAGAAGUGAACCAGAGAAACACACGUUGUGGUAUGUUACCUGGUA" .
Result: 0.183

Q: Identify measured self-cleavage corresponding to "GUCCUCUUUCACGUGCGCGUGAAAGAGCUAAGUGAACCAGAGAAACACACGUUGUGGUAUAUUACCUGGUA"
Result: 0.0915

Q: Identify self-cleavage associated with the variant "GUCUUCUUUCACGUGCGCGUGAAAGAGAGAAGUGAACCAGAGGAACACACGUUGUGGUAUAUUACCUGGUA"
Result: 0.141

Q: Dear colleague, please send me the reported self-cleavage for "GUCCUCUUUCACGUGCGCGUGAAAGAGAGAAGUGAACCAGAGUAACACACGUUGUUGUAUAUUACCUGGUA" when you can.
Result: 0.133

Q: Return self-cleavage for the following variant: "GUCCUCUUUCACGUGCGCGUGAAAGAGAGAAGUGAACCAGGGAAACAUACGUUGUGGUAUAUUACCUGGUA"
Result: 0.162

Q: Item "GUCCUCUUACACGUGCGGGUGAAAGAGAGAAGUGAACCAGAGAAACACACGUUGUGGUAUAUUACCUGGUA" : provide self-cleavage
Result: 0.617

Q: Look up and state reported self-cleavage for "GUCCUCUUUCACGUGCGGGUGAAAGAGAGAAGUGAACCAGAGAAACACACGUUGUGGUAUAUUACCUGGCA"
Result: 0.881

Q: Answer with reported self-cleavage of "GUCCUCUUUCACGUGCGCGUGAAAGAGAGAAGUGAACCAGAGACACAAACGUUGUGGUAUAUUACCUGGUA"
Result: 0.161

Q: Quick one: give measured self-cleavage for "GUCCUCUUUCACGUGCGCGUGAAAGAGGGAAGCGAACCAGAGAAACACACGUUGUGGUAUAUUACCUGGUA"
Result: 0.155

Q: Look up and state reported self-cleavage for "GUGCUCUUUCACGUGCGCGUGAAAGAGAGCAGUGAACCAGAGAAACACACGUUGUGGUAUAUUACCUGGUA"
Result: 0.0439

Q: Name the recorded self-cleavage of the item "GACCUCUUUCACGUGCGCGUGAAAGAGAGAAGUGAACCAGAGAAACACACGUUGUGGCAUAUUACCUGGUA" in your answer.
Result: 0.21

Q: Please look at this variant and report its self-cleavage: "GUCCUCUUUCACGUGCGCGAGAAAGAGAGAAGUGAACCAGAGAAACACACGUUGUGGUAUAUUACCUGCUA"
Result: 0.268

Q: Note down self-cleavage recorded for "GUCCUCUUUCACGUGCGCGUGAAAGAGAGAAGUGAUCCAGAGAAACCCACGUUGUGGUAUAUUACCUGGUA"
Result: 0.146

Q: Give me measured self-cleavage, please, for this variant: "GUCCUCUUUCACGUUCGCGUGAAAGAGAGAAGUGAACCAGAGAAACACACGUUGUGGUAUAUUCCCUGGUA"
Result: 0.16

Q: Entry "GUCCUCUUUCACGUGCGCGUGAAAGAGAGAAGUGAUCCAGAGAAACACACGUUGUGGUAUAAUACCUGGUA" needs its self-cleavage filled in; supply it.
Result: 0.154

Q: Consider the variant "GUCCUCUUUCACGAGCGCGUGAAAGAGAGAAGUGAACCAGAGAAACACACGUUGUGGUAUAGUACCUGGUA" . State its measured self-cleavage.
Result: 0.125

Q: Consider the variant "GUCCUCUUUCACGUGCGCGUGAAAGAGAGAAGUGAACCAGAGAAACACACGUUGUGGUAGAGUACCUGGUA" and give its recorded self-cleavage.
Result: 0.222

Q: Dear colleague, please send me the reported self-cleavage for "GUCCUCUUUCACGUGCGCGUGAAAGAGAGAAGUGAACCAGAGAACCACACGUUGUGCUAUAUUACCUGGUA" when you can.
Result: 0.105

Q: Name the recorded self-cleavage of the variant listed here: "GUCCUCUUUCACGUGCGCGUGAAAGAGAGAAGUGACCCAGAUAAACACACGUUGUGGUAUAUUACCUGGUA"
Result: 0.116

Q: For the variant "GUCCUCUUUCACGUGCGCGUGAAAGAGAGAAGUGAACCAGAGAAACACACGUUGUGGUAUAUUAGCUGGCA" , give its measured self-cleavage value.
Result: 0.189

Q: Supply measured self-cleavage of "GUCCUCUUUCACGUGCGCGUGAAAGAGAGAAGUGAACCAGAACAACACACGUUGUGGUAUAUUACCUGGUA" in your reply.
Result: 0.127

Q: # return recorded self-cleavage for input "GUCCCCUUUCACGUGCGCGUGAAAGAGAGAAGUGAACCAGAGAAACACAUGUUGUGGUAUAUUACCUGGUA"
Result: 0.17

Q: Retrieve self-cleavage measured for "CUCCUCUUUCACGUGAGCGUGAAAGAGAGAAGUGAACCAGAGAAACACACGUUGUGGUAUAUUACCUGGUA" and print it.
Result: 0.0908

Q: Annotate the variant "GUCCUCUUUCACGUGCGCGUGAAAGAGAGAAGUGAACCAGAGAAACAAACGUUGUGGUAUAUUACCUGCUA" with its measured self-cleavage.
Result: 0.135

Q: Please indicate self-cleavage recorded for "GUCCUCUUUCACGUGCGCGUGAAAGAGCGAAGUGAACCAGUGAAACACACGUUGUGGUAUAUUACCUGGUA"
Result: 1.12

Q: For the variant "GUCCUCUUUCACGUGCACGUGAAAGAGAGAAGUGAACCCGAGAAACACACGUUGUGGUAUAUUACCUGGUA" , report self-cleavage.
Result: 0.51

Q: For the variant "GUCCUCUUUCACGUGCGCGUGAAAGAGAGAAGUGAACCAGAGAAACACACGUUGUGGUACAAUACCUGGUA" , report self-cleavage.
Result: 0.253

Q: In one line, give reported self-cleavage of the entry "GUCCUCUUUCAUGUUCGCGUGAAAGAGAGAAGUGAACCAGAGAAACACACGUUGUGGUAUAUUACCUGGUA" .
Result: 1.08

Q: Give recorded self-cleavage. "GUCCUCUUUCACGUGCGCGUGAAAGAGAGAAGUGAACCAGAGAAACACACGUUGUGGAAAAUUACCUGGUA"
Result: 0.509

Q: Complete the entry with self-cleavage for "GUCCUCUUUCACGUGCGCGUGAAAGAGAGAAGUGAACCAGAGAAACACACGUUGUGGUAUAUUACCUGUAA"
Result: 0.346

Q: Fill in self-cleavage for record "GUCCUCUUUCACGUGCGCGUGAAAGAGAGAAGUGAACCAGAGAAACGCACGUUGUGGUGUAUUACCUGGUA"
Result: 0.196

Q: Please list self-cleavage recorded for the variant "GUUCUCUUUCACGUGCGCGUGAAAGAGAGAAGUGAACCAGAGAAACACUCGUUGUGGUAUAUUACCUGGUA"
Result: 0.214

Q: Respond only with self-cleavage recorded for "GUCCUCUAUCACGUGCGCGUGAAAGAGAGAAGUGAACCAGAGAGACACACGUUGUGGUAUAUUACCUGGUA"
Result: 0.173
